These measurements were taken from ChEMBL document CHEMBL4406909.

Assay: Photoprotection activity against UV radiation; further: test concentration or dose not given here
Hi! Just check whether UVAPF is below 4. Below gives class 1, equal or above gives class 0.

Past entries and their recorded results:
Molecule	Category
O=C(N/N=C/c1ccc(Oc2nc(Oc3ccc(/C=N/NC(=O)c4cccc(O)c4)cc3)nc(Oc3ccc(/C=N/NC(=O)c4cccc(O)c4)cc3)n2)cc1)c1cccc(O)c1	class 1
O=C(N/N=C/c1ccc(Oc2nc(Oc3ccc(/C=N/NC(=O)c4ccc([N+](=O)[O-])cc4)cc3)nc(Oc3ccc(/C=N/NC(=O)c4ccc([N+](=O)[O-])cc4)cc3)n2)cc1)c1ccc([N+](=O)[O-])cc1	class 1
O=C(N/N=C/c1ccc(Oc2nc(Oc3ccc(/C=N/NC(=O)c4ccccc4O)cc3)nc(Oc3ccc(/C=N/NC(=O)c4ccccc4O)cc3)n2)cc1)c1ccccc1O	class 0
CC(C)(C)c1ccc(C(=O)N/N=C/c2ccc(Oc3nc(Oc4ccc(/C=N/NC(=O)c5ccc(C(C)(C)C)cc5)cc4)nc(Oc4ccc(/C=N/NC(=O)c5ccc(C(C)(C)C)cc5)cc4)n3)cc2)cc1	class 0
CCCCC(CC)COC(=O)c1ccc(Nc2nc(Nc3ccc(C(=O)OCC(CC)CCCC)cc3)nc(Nc3ccc(C(=O)OCC(CC)CCCC)cc3)n2)cc1 (stereo not given)	class 1
O=C(N/N=C/c1ccc(Oc2nc(Oc3ccc(/C=N/NC(=O)c4ccncc4)cc3)nc(Oc3ccc(/C=N/NC(=O)c4ccncc4)cc3)n2)cc1)c1ccncc1	class 1

Please check: UVAPF for O=C(N/N=C/c1ccc(Oc2nc(Oc3ccc(/C=N/NC(=O)c4ccccc4)cc3)nc(Oc3ccc(/C=N/NC(=O)c4ccccc4)cc3)n2)cc1)c1ccccc1 , strictly under 4 or not?
class 0

Please check: UVAPF for O=C(N/N=C/c1ccc(Oc2nc(Oc3ccc(/C=N/NC(=O)c4ccc(O)cc4O)cc3)nc(Oc3ccc(/C=N/NC(=O)c4ccc(O)cc4O)cc3)n2)cc1)c1ccc(O)cc1O , strictly under 4 or not?
class 1

Please check: UVAPF for Oc1ccc(/C=C/c2cc(O)cc(O)c2)cc1 , strictly under 4 or not?
class 1
